In this section, each of the compounds is paired with its reported Inhibition (%) of NOX activity.
# SYSTEM UNDER TEST: NOX (Homo sapiens)
# Construct: HL60 differentiation to the neutrophil phenotype was triggered by adding Me2SO; endogenous in cells; host or cells: HL-60 cells differentiated with DMSO (1.25% v/v, 6 days) to the neutrophil phenotype
# ASSAY NAME: Amplex Red measurement of extracellular hydrogen peroxide (NOX activity) using DMSO-differentiated HL60 cells
# Type: cell-based
# ASSAY SETUP: DMSO-differentiated HL60 cells, test concentration not given
Form entry: value (%) — number only.

Example results:
1. COc1cccc(Cn2c(C)c3c(=O)n(CCN4CCOCC4)[nH]c3cc2=O)c1 [Compound 83]    89
2. COCCn1[nH]c2cc(=O)n(CC(=O)N3CCN(Cc4ccccc4)CC3)c(C)c2c1=O [Compound 35]    72
3. COCCn1[nH]c2cc(=O)n(-c3cccc(NC(C)=O)c3)c(C)c2c1=O [Compound 19]    73

Incoming: Recall the recorded Inhibition (%) of NOX activity for Cc1c2c(=O)n(Cc3ccccc3)[nH]c2cc(=O)n1Cc1ccccn1 [Compound 1] with NOX (Homo sapiens) and state it.
Outgoing: 67

Incoming: And Cc1c2c(=O)n(CC(C)C)[nH]c2cc(=O)n1Cc1cccnc1 [Compound 44] ?
Outgoing: 78

Incoming: And CC(=O)Nc1cccc(Cn2c(C)c3c(=O)n(CCc4ccccc4)[nH]c3cc2=O)c1 [Compound 28] ?
Outgoing: 78

Incoming: And Cc1c2c(=O)n(CCN3CCOCC3)[nH]c2cc(=O)n1Cc1ccc(Cl)cc1 [Compound 10] ?
Outgoing: 77

Incoming: And COc1cccc(Cc2c3c(=O)n(Cc4ccccc4)[nH]c3cc(=O)n2Cc2ccccn2)c1 [Compound 21] ?
Outgoing: 74

Incoming: And Cc1c2c(=O)n(CCc3ccccc3)[nH]c2cc(=O)n1Cc1ccccc1CN1CCOCC1 [Compound 30] ?
Outgoing: 77

Incoming: And Cc1c2c(=O)n(Cc3ccc(Cl)cc3)[nH]c2cc(=O)n1Cc1ccccn1 [Compound 2] ?
Outgoing: 61

Incoming: And O=c1c2c(COc3ccc(F)cc3)n(Cc3ccc(Cl)cc3)c(=O)cc2[nH]n1CCN1CCOCC1 [Compound 51] ?
Outgoing: 76

###

# SYSTEM UNDER TEST: NOX (Homo sapiens, UniProt P04839)
# Construct: HL60 differentiation to the neutrophil phenotype was triggered by adding Me2SO; endogenous in cells
# Sequence (P04839 whole entry): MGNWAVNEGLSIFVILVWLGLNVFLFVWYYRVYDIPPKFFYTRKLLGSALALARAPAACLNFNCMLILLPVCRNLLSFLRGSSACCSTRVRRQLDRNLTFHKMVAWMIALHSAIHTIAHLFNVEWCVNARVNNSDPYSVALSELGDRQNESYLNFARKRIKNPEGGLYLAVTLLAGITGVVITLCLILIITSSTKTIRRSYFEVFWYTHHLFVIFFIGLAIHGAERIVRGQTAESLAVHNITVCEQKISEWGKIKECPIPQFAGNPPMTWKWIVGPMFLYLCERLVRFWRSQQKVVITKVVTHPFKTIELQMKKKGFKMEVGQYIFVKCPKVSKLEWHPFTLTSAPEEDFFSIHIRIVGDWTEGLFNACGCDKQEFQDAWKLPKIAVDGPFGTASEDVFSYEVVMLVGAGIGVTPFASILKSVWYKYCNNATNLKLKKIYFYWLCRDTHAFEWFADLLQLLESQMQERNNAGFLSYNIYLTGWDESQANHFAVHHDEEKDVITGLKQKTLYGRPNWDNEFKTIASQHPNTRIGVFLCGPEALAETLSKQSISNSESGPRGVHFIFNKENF
# Sequence (P13498 whole entry partner): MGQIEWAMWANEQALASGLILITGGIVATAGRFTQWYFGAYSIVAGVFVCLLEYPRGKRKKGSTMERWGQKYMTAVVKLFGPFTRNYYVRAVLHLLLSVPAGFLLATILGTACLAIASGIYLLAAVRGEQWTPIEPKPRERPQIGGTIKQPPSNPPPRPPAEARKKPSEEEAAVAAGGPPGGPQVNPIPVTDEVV
# ASSAY NAME: Amplex Red measurement of extracellular hydrogen peroxide (NOX activity) using DMSO-differentiated HL60 cells
# ASSAY SETUP: DMSO-differentiated HL60 cells
pIC50: −log10 of the molar value.
In this section, each of the compounds is paired with its reported pIC50.

Example results:
1. CCOCCCn1c(COCc2ccccc2)c2c(=O)n(CCN3CCOCC3)[nH]c2cc1=O [Compound 89]    > 5.30
2. Cc1c2c(=O)n(C3CCCCC3)[nH]c2cc(=O)n1Cc1ccccc1CN1CCOCC1 [Compound 13]    > 5.30

# context switch: different compound, same pIC50
Incoming: Can you share its pIC50? I mean this compound: CC(=O)Nc1cccc(Cn2c(C)c3c(=O)n(CCc4ccccc4)[nH]c3cc2=O)c1 [Compound 28]
Outgoing: > 5.30
